Field: pest or weed control at 100 ppm. Provide a value for each of the compounds that follow.
- Tested on: Zymoseptoria tritici
- PROCEDURE TEXT: Leaf blotch of wheat (SEPTTR) disease control on wheat seedlings
- Format: in vivo
- EXPERIMENTAL SETUP: 24 h, High volume application, 100 ppm, 1 Day Protectant, read-out: SEPTTR disease control rating, 1DP
- Method: Example A: Evaluation of Fungicidal Activity: Leaf Blotch of Wheat (Zymoseptoria tritici; Bayer Code […]) Technical grades of materials were dissolved in acetone, which were then mixed with nine volumes of water containing 110 ppm Triton X-100. […] All fungicides were evaluated using the aforementioned method for their activity vs. all target diseases, unless stated otherwise. […] Percent disease control was calculated using the ratio of disease severity on treated plants relative to untreated plants.

Look up pest or weed control at 100 ppm with Zymoseptoria tritici for this compound: COc1ccnc(C(=O)N[C@@H](C)C(=O)OC(C)C(C)c2c(C)cc(F)cc2C)c1O (some centres unmarked) [Example 165] > 80%

Look up pest or weed control at 100 ppm with Zymoseptoria tritici for this compound: COc1ccnc(C(=O)N[C@@H](C)C(=O)O[C@H](C)[C@H](C)c2ccc(F)cc2C)c1O [Example 133] < 80%

Look up pest or weed control at 100 ppm with Zymoseptoria tritici for this compound: COc1ccnc(C(=O)N[C@H](C(=O)O[C@@H](C)[C@@H](C)c2ccc(F)cc2)C(C)C)c1O [Example 141] > 80%

Look up pest or weed control at 100 ppm with Zymoseptoria tritici for this compound: COc1ccnc(C(=O)N[C@@H](C)C(=O)O[C@@H](C)[C@@H](C)c2ccc(F)cc2C(F)(F)F)c1O [Example 159] > 80%

Look up pest or weed control at 100 ppm with Zymoseptoria tritici for this compound: COc1ccnc(C(=O)N[C@@H](C)C(=O)O[C@H](C)[C@H](C)C2CCCC2)c1O [Example 163] < 80%

====

Field: pest or weed control at 100 ppm. Provide a value for each of the compounds that follow.
- Tested on: Zymoseptoria tritici
- PROCEDURE TEXT: Leaf blotch of wheat (SEPTTR) disease control on wheat seedlings
- Type: in vivo
- EXPERIMENTAL SETUP: 24 h, High volume application, 100 ppm, 1 Day Protectant, read-out: SEPTTR disease control rating, 1DP

Please look up its pest or weed control at 100 ppm: COc1ccc([C@H](C)[C@H](C)OC(=O)[C@H](C)NC(=O)c2nccc(OC)c2O)c(C)c1 > 80%

Please look up its pest or weed control at 100 ppm: COc1ccnc(C(=O)N[C@@H](C)C(=O)O[C@@H](C)[C@@H](C)c2ccccc2)c1OC(C)=O < 80%

Please look up its pest or weed control at 100 ppm: COc1ccnc(C(=O)N[C@@H](C)C(=O)O[C@@H](C)[C@H](C)c2ccc(F)cc2C)c1O < 80%

Please look up its pest or weed control at 100 ppm: COc1ccnc(C(=O)N[C@@H](C)C(=O)O[C@@H](C)[C@@H](C)c2ccc(C)s2)c1O < 80%

Please look up its pest or weed control at 100 ppm: COc1ccc([C@H](C)[C@H](C)OC(=O)[C@@H](C)NC(=O)c2nccc(OC)c2O)c(C)c1 < 80%

Please look up its pest or weed control at 100 ppm: COc1ccnc(C(=O)N[C@@H](C)C(=O)O[C@@H](C)[C@@H](C)c2ccccc2)c1O < 80%

Please look up its pest or weed control at 100 ppm: COc1ccc([C@@H](C)[C@@H](C)OC(=O)CNC(=O)c2nccc(OC)c2O)c(C)c1 < 0%
